// data source = paper PMC4297936

# Target: mitochondrial complex I (NADH: ubiquinone oxidoreductase) (Mus musculus, UniProt P03888+Q91WD5+Q9DC70)
# Experiment notes: NADH: ubiquinone oxidoreductase activity
pIC50: −log10 of the molar value.
Measured metric: pIC50

[
  {
    "Structure string": "O=C1Nc2ccc(Cl)cc2[C@@](C#CC2CC2)(C(F)(F)F)O1",
    "Measured metric": "pIC50",
    "Endpoint value": "~4.52"
  }
]
